tested on: SR leukemia; test: NCI-60 one-dose screen, 48 h; details: 10 µM unless noted
This is part of a sample that, as a whole, favours compounds with a hit. Of some 83,000 tested, about 20% had one in any assay. Activity calls are given as the source filed them. Rule for the calls: active = growth percent below 10; inactive = the rest.
Pick one and only one: 1 for active, -1 for inactive

## Task Tell me the assay call for O=C(CC(=O)c1ccccc1F)Nc1ccc([N+](=O)[O-])cc1 please.
## Result -1

## Task Tell me the assay call for Cc1ccc([C@H]2c3[nH]c4ccccc4c3C[C@H]3C(=O)N(CCCCCCC(=O)NO)CC(=O)N23)cc1 please.
## Result -1

====

test system: UO-31 renal; test: NCI-60 one-dose screen, 48 h (100 = growth as untreated, 0 = no growth, -100 = all killed); conditions: 10 µM unless noted
This is part of a sample that, as a whole, favours compounds with a hit. Of some 83,000 tested, about 20% had one in any assay.
property: growth (%)
Numbers only, in %.

Look up growth for the entries below, preserving their order.
1. Cc1cc(N)cc(C)c1-c1c(Br)cc(N)cc1Br
2. O=C(N/N=C/c1ccc([N+](=O)[O-])o1)c1ccc(O)cc1

## Result
1: 36.1; 2: 84.7

Look up growth for the entries below, preserving their order.
1. COc1cnc2c(c1)C(=O)c1c-2n(CCCN2CCN(C)CC2)c(=O)c2cc(Cl)ccc12
2. COc1cc(C2CC(c3ccccc3)=NN2C=O)ccc1Oc1ccnc2cc(Cl)ccc12 (stereo unspecified)
3. COc1ccc(C2c3cccn3-c3ccccc3N2C(C)=O)cc1 (stereo unspecified)
4. CN1C2CCC1/C(=C\c1ccc(F)cc1)C(=O)/C2=C/c1ccc(F)cc1

## Result
[40.1, 47.2, 70.6, 49.7]
